Tested on: HOP-92 NSCLC
assay overview: NCI tumour cell line growth inhibition, 48 h
TGI for assorted compounds
State just the number; it will be interpreted in µM.

Example entries and their recorded answers appear below.
[[record]]
compound = "Cc1ccc(C2OC(COCc3ccc(Cl)cc3)C(OCc3ccc(Cl)cc3)C2O)cc1 (stereo not given)"
endpoint_value = 15.6

[[record]]
compound = "Cc1ccc(NC(Nc2ccc(C)cc2C)=C(/C=C(\\Cl)[N+](=O)[O-])[N+](=O)[O-])c(C)c1"
endpoint_value = 3.99


Let us move to another entry and its TGI.
I am curious: what TGI value has been reported for O=C1OCC2=C1C(c1ccccc1)c1cc3c(cc1N2)OCO3 (stereo not given) ? 7.63

====

System: SK-MEL-28 melanoma
assay overview: NCI tumour cell line growth inhibition, 48 h
log10 TGI for assorted compounds
// stored as log10 of TGI expressed in µM

[[record]]
compound = "CC(C)C[C@H](NC(=O)CNC(=O)c1cc(Cl)ccc1Cl)B1OC(=O)CC(CC(=O)O)(C(=O)O)O1 (stereo not given in full)"
target_desc = "SK-MEL-28 melanoma"
endpoint_value = -0.72


I am curious: what log10 TGI value has been reported for O=S(=O)(Nc1cc(Sc2cccc3cccnc23)c(O)c2ccccc12)c1ccc(F)cc1 ? 0.62

I am curious: what log10 TGI value has been reported for NC(=O)c1csc(C2OC(CO)C(O)C2O)n1 (stereo not given) ? 3.23

I am curious: what log10 TGI value has been reported for N#CC1(C(N)=O)C(c2ccc(Cl)cc2)CC(=O)CC1c1ccc(Cl)cc1 (stereo not given) ? 1.49

I am curious: what log10 TGI value has been reported for CCCCCCCOc1ccc(/C=C\c2cc[n+](CCCCCCCC[n+]3ccc(/C=C\c4ccc(OCCCCCCC)cc4)cc3)cc2)cc1 ? 1.51

====

TGI for assorted molecules
Tested on: NCI-H23 lung
assay overview: NCI tumour cell line growth inhibition, 48 h

[[record]]
molecule = "OCC12C3C4C5C3C1C5C42 (stereo not given)"
measure_name = "TGI"
endpoint_value = "> 100 µM"

[[record]]
molecule = "CN(C)CCCN1c2ccccc2Sc2ccc3ccccc3c21"
measure_name = "TGI"
endpoint_value = "28.2 µM"

[[record]]
molecule = "O=C(O)c1ccc(C2COc3ccc(Cl)cc3C2)cc1 (stereo not given)"
measure_name = "TGI"
endpoint_value = "> 100 µM"

[[record]]
molecule = "O=C1/C(=C/c2ccccc2[N+](=O)[O-])Cc2ccccc21"
measure_name = "TGI"
endpoint_value = "7 µM"

[[record]]
molecule = "O=C(NN1C(=O)CSC12CCCCC2)c1[nH]c2ccc(Br)cc2c1-c1ccccc1"
measure_name = "TGI"
endpoint_value = "41.5 µM"


I am curious: what TGI value has been reported for COC1/C=C/C(C)C(C(C)C(OC)C(C)CCC(=O)C(C)C(C/C=C/N(C)C=O)OC)OC(=O)C=CC2OC2(C)CC(OC)C(OC)C2=CC(=O)O[C@@H](C(C)C(OC)CC(OC)/C=C/C(C)C(O)C1)[C@H]2O (stereo not given in full) ? > 0.322 µM

I am curious: what TGI value has been reported for CCCCCCCOc1ccc(/C=C\c2cc[n+](CCCCCCCC[n+]3ccc(/C=C\c4ccc(OCCCCCCC)cc4)cc3)cc2)cc1 ? > 100 µM

I am curious: what TGI value has been reported for Cc1ccc(-c2nnc(-c3nn(-c4ccccc4)c4nc5ccccc5nc34)o2)cc1 ? 40.6 µM

I am curious: what TGI value has been reported for COC(=O)[C@@H]1[C@H](OC(C)=O)CCC2[C@@]3(C[C@@H](c4ccoc4)O[C@@H]3OC)[C@H](C)CC[C@]21C(=O)OC (stereo not given in full) ? > 25 µM

I am curious: what TGI value has been reported for CN(C)c1ccc(C(Cc2ccccc2)C2NC(=S)NC2=O)cc1 (stereo not given) ? > 100 µM

I am curious: what TGI value has been reported for NCCSS(=O)(=O)CCN ? > 100 µM

====

Tested on: ACHN renal
assay overview: NCI tumour cell line growth inhibition, 48 h
measure name: TGI (µM)
State just the number; it will be interpreted in µM.

[[record]]
structure_as_smiles = "CN(C)CCCN1c2ccccc2Sc2ccc3ccccc3c21"
measure_name = "TGI"
endpoint_value = 20.9


Let us move to another entry and its TGI.
I am curious: what TGI value has been reported for O=C1c2ccccc2-c2cc([N+](=O)[O-])c([N+](=O)[O-])cc21 ? 3.07

====

System: SF-268 CNS
assay overview: NCI tumour cell line growth inhibition, 48 h
TGI for assorted compounds

Example entries and their recorded answers appear below.
[[record]]
compound = "OCC12C3C4C5C3C1C5C42 (stereo not drawn)"
endpoint_value = "> 100 µM"

[[record]]
compound = "CCOC(=O)C1=C(C)N(c2ccc(Cl)cc2)[C@]2(C#N)C(O)=C(Cl)C(Cl)=C(O)[C@]12C#N"
endpoint_value = "> 100 µM"


I am curious: what TGI value has been reported for CC(=O)NC(CCCNC(=O)N(CCCl)N=O)C(=O)NCc1ccccc1 (stereo not drawn) ? > 100 µM

I am curious: what TGI value has been reported for O=C(NC1=C(Cl)C(=O)c2ccccc2C1=O)c1ccc(F)cc1 ? 38.9 µM

I am curious: what TGI value has been reported for Fc1ccc(/C=N/n2c(-c3ccc(F)c(Cl)c3)nn(CNc3ccccc3C(F)(F)F)c2=S)cc1 ? > 100 µM

====

System: MCF7 breast
assay overview: NCI tumour cell line growth inhibition, 48 h
TGI for assorted compounds

Example entries and their recorded answers appear below.
[[record]]
compound = "CCN(CC)CC1CCCCN1CC(=O)N1c2ccccc2C(=O)Nc2cccnc21 (stereo not given)"
measure_name = "TGI"
endpoint_value = "> 100 µM"

[[record]]
compound = "NC(CSC1c2ccccc2-c2ccccc21)C(=O)O (stereo not given)"
measure_name = "TGI"
endpoint_value = "> 100 µM"

[[record]]
compound = "C=CCC1(OCc2ccccc2)C(=O)C(=O)OC1C1COC(C)(C)O1 (stereo not given)"
measure_name = "TGI"
endpoint_value = "> 100 µM"

[[record]]
compound = "CN=c1ccc2nc3ccc(N)cc3sc-2c1"
measure_name = "TGI"
endpoint_value = "6.5 µM"

[[record]]
compound = "O=C(OCc1ccc2ccccc2n1)c1cn(C2CC2)c2cc(N3CCN(Cc4ccc5ccccc5n4)CC3)c(F)cc2c1=O"
measure_name = "TGI"
endpoint_value = "> 92.7 µM"


I am curious: what TGI value has been reported for O=C(NNCC(O)COc1ccccc1)c1ccccc1 (stereo not given) ? > 100 µM

I am curious: what TGI value has been reported for CCN1C(=O)c2cc(OC)c(OC)cc2C(=O)C12OC(=O)c1cc3c(cc12)OCO3 (stereo not given) ? > 100 µM

I am curious: what TGI value has been reported for COc1ccc2c(c1)N(CCO)C1=C(C(=O)OC1)C2c1cccc(F)c1 (stereo not given) ? > 50 µM

I am curious: what TGI value has been reported for O=C1/C(=C/c2ccccc2[N+](=O)[O-])Cc2ccccc21 ? 11.8 µM

I am curious: what TGI value has been reported for O=C(Nc1ccc(OCc2nnc(-c3ccc(Cl)cc3)o2)c(F)c1)Nc1ccc(Cl)c(C(F)(F)F)c1 ? 7.7 µM

====

GI50 for assorted molecules
Test system: SNB-19 CNS
assay overview: NCI tumour cell line growth inhibition, 48 h

Example entries and their recorded answers appear below.
[[record]]
molecule = "Cc1cc(S(=O)(=O)/N=C(/N)Nc2ccccc2O)c(SCc2ccccc2)cc1Cl"
measure_name = "GI50"
endpoint_value = "16.6 µM"

[[record]]
molecule = "O=C(Nc1ccc(OCc2nnc(-c3ccc(Cl)cc3)o2)c(F)c1)Nc1ccc(Cl)c(C(F)(F)F)c1"
measure_name = "GI50"
endpoint_value = "2.92 µM"

[[record]]
molecule = "Fc1ccc(/C=N/n2c(-c3ccc(F)c(Cl)c3)nn(CNc3ccccc3C(F)(F)F)c2=S)cc1"
measure_name = "GI50"
endpoint_value = "> 100 µM"

[[record]]
molecule = "CNCCCNCCCCNCCCN1C(=O)c2ccc3c4c(ccc(c24)C1=O)C(=O)N(CCCNCc1ccccc1OC)C3=O"
measure_name = "GI50"
endpoint_value = "3.79 µM"

[[record]]
molecule = "CO/N=C(\\COc1ccc2c(c1)[nH]c1ccccc12)c1ccc(F)cc1"
measure_name = "GI50"
endpoint_value = "30 µM"

[[record]]
molecule = "NC(=O)c1csc(C2OC(CO)C(O)C2O)n1 (configuration not stated)"
measure_name = "GI50"
endpoint_value = "65.7 µM"


Let us move to another entry and its GI50.
I am curious: what GI50 value has been reported for O=C1OCC2=C1C(c1ccc(Cl)c(Cl)c1)c1cc3c(cc1N2CCO)OCCO3 (configuration not stated) ? 0.327 µM

====

TGI for assorted compounds
Tested on: XF 498 CNS
assay overview: NCI tumour cell line growth inhibition, 48 h
State just the number; it will be interpreted in µM.

Example entries and their recorded answers appear below.
[[record]]
structure_as_smiles = "O=C(/C=C/c1ccccc1)CCN1CCOCC1"
units_text = "µM"
endpoint_value = 29.1

[[record]]
structure_as_smiles = "O=C(CCl)NNC1=Nc2ccc(Cl)cc2SC1"
units_text = "µM"
endpoint_value = 3.92


Let us move to another entry and its TGI.
Provide value of TGI for this record tested with XF 498 CNS: Cc1ccc(/C=C/C(=O)C(C)(C)CN2CCCCC2)cc1 25.3

Data origin, for the record: PubChem BioAssay (NCI)
